- TESTED_TARGET: Alpha-1D adrenergic receptor (Homo sapiens, UniProt P25100); also: in other assays of this panel Not Active means under 50% inhibition at 10 µM
- Sequence (P25100 whole entry): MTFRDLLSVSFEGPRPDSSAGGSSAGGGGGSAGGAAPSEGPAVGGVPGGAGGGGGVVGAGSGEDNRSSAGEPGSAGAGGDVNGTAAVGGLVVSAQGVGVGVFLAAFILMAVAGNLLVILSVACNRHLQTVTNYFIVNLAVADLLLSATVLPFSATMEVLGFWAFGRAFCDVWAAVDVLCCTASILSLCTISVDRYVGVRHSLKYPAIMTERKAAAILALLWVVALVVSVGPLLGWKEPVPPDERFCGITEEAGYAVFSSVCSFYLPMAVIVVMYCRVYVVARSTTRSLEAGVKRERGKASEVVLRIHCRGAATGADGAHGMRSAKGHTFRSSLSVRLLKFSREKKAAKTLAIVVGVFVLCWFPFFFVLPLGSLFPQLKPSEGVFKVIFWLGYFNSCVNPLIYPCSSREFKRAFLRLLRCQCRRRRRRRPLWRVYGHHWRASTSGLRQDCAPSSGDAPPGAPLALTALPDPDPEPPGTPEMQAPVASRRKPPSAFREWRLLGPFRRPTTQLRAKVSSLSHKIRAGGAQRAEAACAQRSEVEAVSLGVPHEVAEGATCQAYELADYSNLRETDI
- Assay type: cell membranes, HEK293, Membrane
- TEST_PARAMETERS: hek293

# COMPOUND, IC50
data = [
    ("OCCO", "Not Active"),
    ("C[C@]12CCC(=O)C=C1CC[C@@H]1[C@@H]2[C@@H](O)C[C@@]2(C)[C@H]1CC[C@]2(O)C(=O)CO [HYDROCORTISONE]", "Not Active"),
    ("O=C(O)C(Cl)(Cl)Cl", "Not Active"),
    ("NC[C@H]1O[C@H](O[C@H]2[C@H](O)[C@@H](O[C@H]3O[C@H](CO)[C@@H](O)[C@H](N)[C@H]3O)[C@H](N)C[C@@H]2N)[C@H](N)C[C@@H]1O", "Not Active"),
    ("C=C1/C(=C\\C=C2/CCC[C@]3(C)[C@@H]([C@H](C)CCCC(C)C)CC[C@@H]23)C[C@@H](O)C[C@@H]1O", "Not Active"),
    ("CC(=O)O[C@]1(C(C)=O)CC[C@H]2[C@@H]3C=C(C)C4=CC(=O)CC[C@]4(C)[C@H]3CC[C@@]21C [MEGESTROL ACETATE]", "Not Active"),
    ("NC(=O)N1c2ccccc2C=Cc2ccccc21 [CARBAMAZEPINE]", "Not Active"),
    ("O=P(O)(O)C(O)(Cc1cccnc1)P(=O)(O)O", "Not Active"),
    ("O=C(O)c1cccnc1", "Not Active"),
    ("C[C@H]([C@](O)(Cn1cncn1)c1ccc(F)cc1F)S(C)(=O)=O", "Not Active"),
    ("CCCCCC[C@H]1C(=O)O[C@H](C)[C@H](NC(=O)c2cccc(NC=O)c2O)C(=O)O[C@@H](C)[C@@H]1OC(=O)CC(C)C [ANTIMYCIN A]", "Not Active"),
    ("C/C=C\\c1ccc(O)c(OC)c1", "Not Active"),
    ("Nc1nc(N)nc(NC2CC2)n1", "Not Active"),
    ("CC(C(=O)O)c1ccc(CC2CCCC2=O)cc1 (stereo unspecified)", "Not Active"),
    ("OCCN1CCN(CCCN2c3ccccc3Sc3ccc(Cl)cc32)CC1", "Not Active"),
    ("O=P1(N(CCCl)CCCl)NCCCO1 (stereo unspecified) [CYCLOPHOSPHAMIDE ANHYDROUS]", "Not Active"),
    ("Nc1ccc(S(=O)(=O)Nc2ncccn2)cc1", "Not Active"),
    ("C=C(C)[C@H]1Cc2c(ccc3c2O[C@@H]2COc4cc(OC)c(OC)cc4[C@@H]2C3=O)O1", "Not Active"),
    ("O=c1cc(-c2ccccc2)oc2ccc3ccccc3c12", "Not Active"),
    ("C#CCN(C)[C@H](C)Cc1ccccc1", "Not Active"),
    ("CCS(=O)(=O)CCn1c([N+](=O)[O-])cnc1C", "Not Active"),
    ("CC(C)(CO)C(O)C(=O)NCCCO (stereo unspecified)", "Not Active"),
    ("Clc1cc2c(cc1Cl)Oc1cc(Cl)c(Cl)cc1O2", "Not Active"),
    ("CCOC(=O)[C@H](CCc1ccccc1)N[C@@H](C)C(=O)N1Cc2ccccc2C[C@H]1C(=O)O", "Not Active"),
    ("Nc1nc(Cl)nc2c1ncn2[C@H]1C[C@H](O)[C@@H](CO)O1", "Not Active"),
    ("CC(C(=O)O)c1ccc(-c2ccccc2)c(F)c1 (stereo unspecified)", "Not Active"),
    ("CC(C)(Sc1cc(C(C)(C)C)c(O)c(C(C)(C)C)c1)Sc1cc(C(C)(C)C)c(O)c(C(C)(C)C)c1", "Not Active"),
    ("CNC(=C[N+](=O)[O-])NCCSCc1csc(CN(C)C)n1", "Not Active"),
    ("C#C[C@]1(O)CC[C@H]2[C@@H]3CCC4=Cc5oncc5C[C@]4(C)[C@H]3CC[C@@]21C", "Not Active"),
    ("CCN(CC)CC#CCOC(=O)C(O)(c1ccccc1)C1CCCCC1 (stereo unspecified)", "Not Active"),
    ("Cc1cn([C@H]2C[C@H](N=[N+]=[N-])[C@@H](CO)O2)c(=O)[nH]c1=O", "Not Active"),
    ("CCN[C@@H](C)Cc1cccc(C(F)(F)F)c1", "Not Active"),
    ("COC(=O)c1ccccc1O [METHYL SALICYLATE]", "Not Active"),
    ("COc1ccc2cc(CCC(C)=O)ccc2c1", "Not Active"),
    ("Oc1ccccc1O", "Not Active"),
    ("Cc1cnc(C(=O)NCCc2ccc(S(=O)(=O)NC(=O)NC3CCCCC3)cc2)cn1 [GLIPIZIDE]", "Not Active"),
]

Ref: ChEMBL document CHEMBL1909046
